study.system: thrombin (Homo sapiens, UniProt P00734)
test.description: Measurement of the thrombin inhibition in buffer
Assay type: biochemical
experimental.parameters: human thrombin 0.06 nmol/l in Tris buffer pH 7.4, 22° C., substrate Boc-Asp(OBzl)-Pro-Arg-AMC; in some cases means of individual determinations
measurement.name: pIC50
// pIC50: -log10(molar conc.)

Reference set (2 entries):
# compound, study.system, pIC50
data = [
    ("COc1cc(C(=O)N2CCCC2(C)C(=O)N2CC(F)(F)C2)cc2nc(NCc3cc(Cl)ccn3)oc12 (single isomer, unassigned)", "thrombin (Homo sapiens, UniProt P00734)", 7.52),
    ("COc1cc(C(=O)N2CC(C)OCC2CC(C)(C)O)cc2nc(NCc3cc(Cl)ccn3)oc12 (single isomer, unassigned) [Example 57]", "thrombin (Homo sapiens, UniProt P00734)", 7.70),
]

// moving on: another record for pIC50
Look up pIC50: CCC1C(=O)NC2(CC2)CN1C(=O)c1cc(OC)c2oc(NCc3cc(Cl)ccn3)nc2c1 (racemic) [Example 78] 7.89

----------
study.system: thrombin (Homo sapiens)
test.description: Determination of the thrombin-inhibitory activity in plasma samples (ecarin-activated)
Type: biochemical
experimental.parameters: citrate plasma, ecarin activation, fluorogenic thrombin substrate; in some cases means of individual determinations
compounds and their reported IC50
# unit: nM | format: bare number

Completed entries (count: 3):
# compound, output.unit, IC50
data = [
    ("CCC1C(=O)NC(C)CN1C(=O)c1cc(OC)c2oc(NCc3cc(Cl)ccn3)nc2c1 (single isomer, unassigned) [Example 80]", "nM", 16),
    ("COc1cc(C(=O)N2CC(C)OCC2CCO)cc2nc(NCc3cc(Cl)ccn3)oc12 (racemic) [Example 70]", "nM", 74),
    ("CC[C@@H]1COC(C)(CCO)CN1C(=O)c1cc(OC)c2oc(NCc3cc(Cl)ccn3)nc2c1 (single isomer, unassigned) [Example 29]", "nM", 8.8),
]

Turning now to a further record.
Bench note: what IC50 did COc1cc(C(=O)N2CC(C)(C)OCC2C(C)O)cc2nc(NCc3cc(Cl)ccn3)oc12 (single isomer, unassigned) [Example 95] show? 13

----------
study.system: thrombin (Homo sapiens)
test.description: Determination of the thrombin-inhibitory activity in plasma samples (ecarin-activated)
Format: biochemical
experimental.parameters: citrate plasma, ecarin activation, fluorogenic thrombin substrate; in some cases means of individual determinations
Below, each entry is listed with its recorded IC50.
Give just the numeric value; nM need not be written.

# annotated cases, reported IC50 shown
# compound, study.system, recorded.value
records = [
    ("COc1cc(C(=O)N2CC(C)OCC23CC(O)C3)cc2nc(NCc3cc(Cl)ccn3)oc12 (single isomer, unassigned) [Example 53]", "thrombin (Homo sapiens)", 49),
    ("COc1cc(C(=O)N2CC(C)(CC(C)O)OCC2(C)C)cc2nc(NCc3cc(Cl)ccn3)oc12 (racemic) [Example 34]", "thrombin (Homo sapiens)", 37),
    ("COc1cc(C(=O)N2CC(C)(C)OCC2CC(C)O)cc2nc(NCc3cc(Cl)ccn3)oc12 (single isomer, unassigned) [Example 65]", "thrombin (Homo sapiens)", 61),
    ("COc1cc(C(=O)N2CC(C)(C)OCC2CC(C)O)cc2nc(NCc3cc(Cl)ccn3)oc12 (single isomer, unassigned) [Example 62]", "thrombin (Homo sapiens)", 107),
    ("COc1cc(C(=O)N2CC(C)(CC(C)O)OC[C@H]2C)cc2nc(NCc3cc(Cl)ccn3)oc12 (single isomer, unassigned) [Example 25]", "thrombin (Homo sapiens)", 6.8),
    ("COc1cc(C(=O)N2CC(C)OCC2(C)CO)cc2nc(NCc3cc(Cl)ccn3)oc12 (single isomer, unassigned) [Example 20]", "thrombin (Homo sapiens)", 66),
    ("COc1cc(C(=O)N2CC(C)OCC2C2CC(O)C2)cc2nc(NCc3cc(Cl)ccn3)oc12 (single isomer, unassigned) [Example 47]", "thrombin (Homo sapiens)", 24),
    ("COc1cc(C(=O)N2CC(C)(CCO)OCC2(C)C)cc2nc(NCc3cc(Cl)ccn3)oc12 (single isomer, unassigned) [Example 33]", "thrombin (Homo sapiens)", 14),
]

# returns recorded IC50 (system: thrombin (Homo sapiens)) for COc1cc(C(=O)N2CC(C)OCC2CC(C)(C)O)cc2nc(NCc3cc(Cl)ccn3)oc12 (racemic) [Example 55] 33

The reported numbers originate from patent US20160108027A1.
